Record form. Attribute: inhibition. Fill in for each entry.
- systemTested: Serine/threonine-protein kinase SIK1 (Homo sapiens) (UniProt P57059);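 also: mean inhibition value from the GSK PKIS profiling set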
- Sequence (P57059 whole entry): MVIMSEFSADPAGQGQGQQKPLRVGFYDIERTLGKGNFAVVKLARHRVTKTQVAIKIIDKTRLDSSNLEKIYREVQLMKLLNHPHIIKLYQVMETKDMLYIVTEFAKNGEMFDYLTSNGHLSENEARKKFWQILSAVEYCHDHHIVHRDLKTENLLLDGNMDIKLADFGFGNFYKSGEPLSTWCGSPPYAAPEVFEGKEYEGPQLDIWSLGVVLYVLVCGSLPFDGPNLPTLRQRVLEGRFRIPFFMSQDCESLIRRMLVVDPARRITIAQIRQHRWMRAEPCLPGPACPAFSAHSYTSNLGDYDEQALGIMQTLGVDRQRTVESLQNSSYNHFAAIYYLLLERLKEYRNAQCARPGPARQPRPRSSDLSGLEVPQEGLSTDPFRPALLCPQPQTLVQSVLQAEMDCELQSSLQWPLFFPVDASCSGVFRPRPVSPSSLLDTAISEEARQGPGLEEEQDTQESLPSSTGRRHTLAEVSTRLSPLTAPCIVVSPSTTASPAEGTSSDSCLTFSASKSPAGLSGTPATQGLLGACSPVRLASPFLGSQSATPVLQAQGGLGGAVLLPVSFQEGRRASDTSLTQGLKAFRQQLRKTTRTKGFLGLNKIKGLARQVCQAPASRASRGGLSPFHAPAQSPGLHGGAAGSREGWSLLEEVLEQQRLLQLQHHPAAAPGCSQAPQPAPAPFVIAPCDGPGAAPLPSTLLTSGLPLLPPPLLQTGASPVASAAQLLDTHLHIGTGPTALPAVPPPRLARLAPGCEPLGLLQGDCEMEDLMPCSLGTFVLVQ
- statedConditions: at 1 µM
One number for each entry, in %.

Worked set:
CCn1c(-c2nonc2N)nc2cnc(Oc3cccc(NC(=O)c4ccc(OCCN5CCOCC5)cc4)c3)cc21 : 10.1
Nc1nc(-c2ccccn2)c(-c2ccc3ncccc3n2)s1 : 3.52
CCn1c(-c2nonc2N)nc2c(C#CC(C)(C)O)nc(OC[C@@H](N)c3ccccc3)cc21 : 0.3
CC1=C(C(=O)Nc2ccc3[nH]ncc3c2)C(c2ccc(F)cc2)NC(=O)N1 (stereo not given) : 3.8

// below: inhibition requested for another compound
Bench note: what inhibition did O=C1NC(=O)C(N2CCc3ccccc32)=C1c1ccc(Cl)cc1 show? 7.18
